# study_target: HEK-293 cells expressing a G810S mutant RET Kif5b-RET fusion protein (Homo sapiens, UniProt P07949, G810S)
# Construct: KIF5B (N-terminal portion incl. coiled-coil)
# test_method_notes: RET G810S Mutant Cell Assay (phospho-RET Tyr1062)
# settings: HEK-293 Kif5b-RET G810S, 1 hour incubation, phospho-RET normalized to GAPDH
Field: IC50. Provide a value for each of the compounds that follow.

compound	IC50
CC(C)n1c2c(c3c(N)ncnc31)-c1cc3ccc(C(=O)Nc4cnn(C)c4)cc3n1CCC2 [Example 93]	1000 nM
CC(C)n1c2c(c3c(N)ncnc31)-c1cc3ccc(C(=O)Nc4ccccn4)cc3n1CCC2 [Example 90]	408 nM
CC(C)n1c2c(c3c(N)ncnc31)-c1cc3ccc(C(=O)Nc4ccn(CCC(F)(F)F)n4)cc3n1CCC2 [Example 101]	62 nM

Asked: Any idea what IC50 was measured for Cc1ccc2c(c1)cc1n2C(=O)NCc2c-1c1c(N)ncnc1n2C(C)C [Example 81] ?
Given back: 39 nM

---

Provide the recorded pIC50 for the entries that follow.
# study_target: G810R mutant RET kinase (Homo sapiens, UniProt P07949, G810R);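 note: HTRF KinEASE-TK enzymatic assay with 1 nM recombinant RET G810R, 1 h at 22 °C, dual-wavelength ratiometric readout, 100% control without compound, 0% from pre-quenched reactions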
# test_method_notes: biochemical
Numbers only, as −log10 of the molar value.

Example results:
compound	pIC50
CC(C)n1c2c(c3c(N)ncnc31)-c1noc(C3CC3)c1[C@@H](O)CC2 (single isomer, unassigned)	7.15
CC(C)n1c2c(c3c(N)ncnc31)-c1cc3ccc(C(=O)Nc4ccn(CCC(F)(F)F)n4)cc3n1CCC2	5.85

Working through the 5 compounds below one at a time, give pIC50 for each.
1. Nc1ncnc2c1c1c(n2C2CC(F)(F)C2)CCC(O)c2c-1noc2C1CC1 (stereo not shown) [Example 148, 2,2,2-trifluoroacetate]
2. CC(C)n1c2c(c3c(N)ncnc31)-c1cc3ccc(C(=O)Nc4ccn(CCN5CCOCC5)n4)cc3n1CCC2
3. CC(C)n1c2c(c3c(N)ncnc31)-c1noc(C3CC3)c1S(=O)(=O)CC2 [Example 23, 2,2,2-trifluoroacetate]
4. COC(=O)c1ccc2cc3n(c2c1)C(=O)NCc1c-3c2c(N)ncnc2n1C(C)C
5. CC(C)n1c2c(c3c(N)ncnc31)-c1ccc(NC(=O)CC3CC3)cc1C(=O)NC2

Given back:
1: 6.81; 2: 6.54; 3: 7.20; 4: 6.74; 5: 5.10

---

# study_target: HEK-293 cells expressing a G810R mutant RET Kif5b-RET fusion protein (Homo sapiens, UniProt P07949, G810R)
# Construct: KIF5B (N-terminal portion incl. coiled-coil); the other entry of the earlier key: KIF5B (P33176, Kinesin-1 heavy chain)
# Sequence (P07949 713-1063 G810R limits assumed): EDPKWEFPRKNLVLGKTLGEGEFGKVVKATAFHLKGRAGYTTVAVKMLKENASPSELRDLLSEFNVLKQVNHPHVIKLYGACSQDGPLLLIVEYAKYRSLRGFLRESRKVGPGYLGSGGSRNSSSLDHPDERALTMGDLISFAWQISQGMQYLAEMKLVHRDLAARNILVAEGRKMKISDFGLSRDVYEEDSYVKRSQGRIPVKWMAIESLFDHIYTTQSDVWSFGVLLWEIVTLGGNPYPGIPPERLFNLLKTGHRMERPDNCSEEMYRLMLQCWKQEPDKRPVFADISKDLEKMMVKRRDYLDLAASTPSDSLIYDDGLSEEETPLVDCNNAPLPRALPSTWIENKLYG
# test_method_notes: RET G810R Mutant Cell Assay (phospho-RET Tyr1062)
# settings: HEK-293 Kif5b-RET G810R, 1 hour incubation, phospho-RET normalized to GAPDH
Assign labels as follows, please: TRUE for IC50 below 50 nM; FALSE for IC50 equal to or exceeding 50 nM.

A selection of reference data follows.
compound	category
Nc1ncnc2c1c1c(n2C2CCCC2)CC[C@@H](O)c2c-1noc2C1CC1 (single isomer, unassigned)	TRUE
CC(C)n1c2c(c3c(N)ncnc31)-c1cc3ccc(C(=O)Nc4ccn(CCC(F)(F)F)n4)cc3n1CCC2	FALSE

Asked: Confirm or reject: IC50 of "CC(C)n1c2c(c3c(N)ncnc31)-c1cc3ccc(C(=O)Nc4ccn(CCN5CCOCC5)n4)cc3n1CCC2" lies strictly below 50 nM
Given back: FALSE

Asked: Lab log: compare recorded IC50 with 50 nM; is it strictly lower for Nc1ncnc2c1c1c(n2C2CCC(O)C2)CCC(O)c2c-1noc2C1CC1 (stereo not drawn) ?
Given back: TRUE

Asked: Consider the compound "CC(C)n1c2c(c3c(N)ncnc31)-c1noc(C3CC3)c1C=CC2" . Is its IC50 strictly less than 50 nM?
Given back: FALSE

Asked: Dear reviewer, please state whether "CC1(n2c3c(c4c(N)ncnc42)-c2noc(C4CC4)c2[C@H](O)CC3)CC1" has IC50 strictly beneath 50 nM.
Given back: TRUE

Asked: Answer whether the compound "CO[C@@H]1CCc2c(c3c(N)ncnc3n2C2(C)CC2)-c2noc(C3CC3)c21" has IC50 strictly less than 50 nM
Given back: FALSE

---

# study_target: HEK-293 cells expressing a G810R mutant RET Kif5b-RET fusion protein (Homo sapiens, UniProt P07949, G810R)
# Construct: KIF5B (N-terminal portion incl. coiled-coil); expressed in transfected cells; host or cells: HEK-293; the other entry of the earlier key: KIF5B (P33176, Kinesin-1 heavy chain)
# Sequence (P07949 713-1063 G810R limits assumed): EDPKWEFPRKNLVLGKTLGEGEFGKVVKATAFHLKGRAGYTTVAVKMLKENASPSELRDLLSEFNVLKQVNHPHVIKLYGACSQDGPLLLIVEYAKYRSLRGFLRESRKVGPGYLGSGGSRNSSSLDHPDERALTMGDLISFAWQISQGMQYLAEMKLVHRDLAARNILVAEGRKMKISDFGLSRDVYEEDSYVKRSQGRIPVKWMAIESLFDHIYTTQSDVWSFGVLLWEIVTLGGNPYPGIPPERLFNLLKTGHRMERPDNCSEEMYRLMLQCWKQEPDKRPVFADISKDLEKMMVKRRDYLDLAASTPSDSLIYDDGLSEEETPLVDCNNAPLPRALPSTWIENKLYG
# test_method_notes: RET G810R Mutant Cell Assay (phospho-RET Tyr1062)
# Type: cell-based
# settings: HEK-293 Kif5b-RET G810R, 1 hour incubation, phospho-RET normalized to GAPDH
// NB: equality with 0.2 µM counts as f; only IC50 strictly below is t

compound	category
CC(C)n1c2c(c3c(N)ncnc31)-c1noc(C3CC3)c1C(=O)N(CCc1ccccc1)C2	f
CC(C)n1c2c(c3c(N)ncnc31)-c1noc(C3CC3)c1S(=O)(=O)NC2 [Example 21, 2,2,2-trifluoroacetate]	t
CCCN1Cc2c(c3c(N)ncnc3n2C(C)C)-c2noc(C3CC3)c2C1=O	f

Asked: Please determine if CC(n1c2c(c3c(N)ncnc31)-c1noc(C3CC3)c1C(O)CC2)C(F)(F)F (stereo not drawn) is below 0.2 µM in terms of IC50.
Given back: t

Asked: Field: below-cutoff. Rule: recorded IC50 strictly less than 0.2 µM. Subject: CC1Cc2c(c3c(N)ncnc3n2C(C)C)-c2noc(C3CC3)c2C1O (stereo not drawn)
Given back: f

Asked: Find out if reported IC50 for CC(C)n1c2c(c3c(N)ncnc31)-c1noc(C3CC3)c1S(=O)(=O)CC2 [Example 23, 2,2,2-trifluoroacetate] is less than 0.2 µM
Given back: t

Asked: # TODO verify IC50 < 0.2 µM strictly for this compound: "CC(C)n1c2c(c3c(N)ncnc31)-c1cc3ccccc3n1C(=O)CC2"
Given back: f

Asked: Say whether its IC50 is strictly beneath 0.2 µM. Entry: "CC(C)n1c2c(c3c(N)ncnc31)-c1cc3cc(Cl)ccc3n1C(=O)NC2"
Given back: t

Asked: Quick check: does CC(C)n1c2c(c3c(N)ncnc31)-c1noc(C3CC3)c1[C@H](O)CC2 (single isomer, unassigned) have IC50 under 0.2 µM?
Given back: t

Asked: Take the compound "CC(C)n1c2c(c3c(N)ncnc31)-c1noc(C3CC3)c1C(=O)OC2" and say whether its IC50 is less than 0.2 µM.
Given back: t

Asked: IC50 under 0.2 µM? Item: CO[C@@H]1CCc2c(c3c(N)ncnc3n2C(C)C)-c2noc(C3CC3)c21 (single isomer, unassigned)
Given back: t

Asked: Here's an entry: "CC(C)n1c2c(c3c(N)ncnc31)-c1cc3ccc(C(=O)NC4(C)CC4)cc3n1CCC2" . Is its IC50 below 0.2 µM?
Given back: t

Asked: Answer whether the compound C[C@H](n1c2c(c3c(N)ncnc31)-c1noc(C3CC3)c1[C@H](O)CC2)C(F)(F)F (single isomer, unassigned) has IC50 strictly less than 0.2 µM
Given back: t

Asked: Lab note: IC50 threshold 0.2 µM. Does this compound come in strictly under it? CC(C)n1c2c(c3c(N)ncnc31)-c1noc(C3CC3)c1[C@@H](O)[C@H](C)C2 (single isomer, unassigned) [Example 64]
Given back: t

Asked: Hello, I'm reviewing records and need to know if IC50 of "CC(C)n1c2c(c3c(N)ncnc31)-c1noc(C3CC3)c1S(=O)(=O)N(C)C2" is below 0.2 µM. Could you check?
Given back: f
